Literature survey of pIC50 (system: Poly [ADP-ribose] polymerase 2 (Homo sapiens)).
pIC50: −log10 of the molar value.

> print(dat)
                                   molecule       reading
1  CNC(=O)c1ccc(N2CCN(Cc3ccc4ncc(=O)[nH]c4c3F)CC2)cn1        < 4.00
2  CCc1nc2ccc(CN3CCN(c4ccc(C(=O)NC)nc4F)CC3)c(C)c2[nH]c1=O        < 4.00
3  CNC(=O)c1ccc(N2CCN(Cc3cnc4c(C)c(C(F)(F)F)c(=O)[nH]c4c3)C[C@H]2C)cn1          6.72
4  CNC(=O)c1ccc(N2CCN(Cc3ccc4nc(OC)c(=O)[nH]c4c3C)CC2)c(C(F)F)n1          5.68
5  CNC(=O)c1ccc(N2CCN(Cc3ccc4nc(C(F)F)c(=O)[nH]c4c3F)CC2)c(C)n1          4.24
6  CNC(=O)c1ccc(N2CCN(Cc3ccc4nc(C)c(=O)[nH]c4c3C)CC2)c(C(F)F)n1        < 4.00
7  CNC(=O)c1ccc(N2CCN(Cc3cc4c5c(c(C)c(=O)[nH]c5c3)CC4)CC2)c(F)n1  7.00 to 8.00

Now look at this entry.
**Query** Reported pIC50 for Poly [ADP-ribose] polymerase 2 (Homo sapiens), given CCc1nc2ccc(CN3CCN(c4ccc(C(=O)NC)nc4Cl)CC3)c(F)c2[nH]c1=O ?
**Result** < 4.00
